- Assay explanation: deoxyribose (dR) degradation test, hydroxyl radical scavenging
- Format: biochemical
- Condition context: mean of n slopes; sodium phosphate buffer pH 7.2
For each entry below, report its SECOND ORDER RATE CONSTANT for reaction with hydroxyl radicals value.
Supply the numeric figure in M⁻¹ s⁻¹, leaving out any unit text.

Query :: Which value of SECOND ORDER RATE CONSTANT for reaction with hydroxyl radicals has been reported for Cc1ncc[nH]1 in the records?
Result :: 1.17e+10

Query :: Sample O=C(O)/C=C/c1cnc[nH]1 [trans-Urocanic acid, Trans-urocanic acid] — what was its SECOND ORDER RATE CONSTANT for reaction with hydroxyl radicals?
Result :: 8e+09

Query :: // returns reported SECOND ORDER RATE CONSTANT for reaction with hydroxyl radicals for input O=C(O)Cc1c[nH]cn1
Result :: 2.2e+09

Query :: Can you look up the measured SECOND ORDER RATE CONSTANT for reaction with hydroxyl radicals of C[C@H](N)C(=O)O for me?
Result :: 1e+08

Query :: Item under review: O=C(O)/C=C\c1c[nH]cn1 [cis-Urocanic acid] . Reported SECOND ORDER RATE CONSTANT for reaction with hydroxyl radicals?
Result :: 7.1e+09

Query :: I have this compound here, O=c1[nH]c(=O)c2[nH]c(=O)[nH]c2[nH]1 , and I need its recorded SECOND ORDER RATE CONSTANT for reaction with hydroxyl radicals.
Result :: 2.78e+10

Query :: Quick check: SECOND ORDER RATE CONSTANT for reaction with hydroxyl radicals of O=C(O)CCc1c[nH]cn1 [Dihydrourocanic acid, 3-(imidazol-4-yl)-propionic acid] ?
Result :: 3.7e+09

* * *

Provide the reported INHIBITION of DEOXYRIBOSE DEGRADATION of each item.
- Assay explanation: deoxyribose (dR) degradation test, hydroxyl radical scavenging
- Type: biochemical
- Condition context: [SCAVENGER] = [DEOXYRIBOSE] = 3 Mm

Query :: Give the measured INHIBITION of DEOXYRIBOSE DEGRADATION of O=C(O)/C=C/c1cnc[nH]1 [trans-Urocanic acid, Trans-urocanic acid] .
Result :: 67%

Query :: Which INHIBITION of DEOXYRIBOSE DEGRADATION value is on record for C[C@H](N)C(=O)O [L-Alanine, L-alanine] ?
Result :: 2%

Query :: Given the entry O=C(O)/C=C\c1c[nH]cn1 [cis-Urocanic acid] , report its measured INHIBITION of DEOXYRIBOSE DEGRADATION.
Result :: 64%

Query :: INHIBITION of DEOXYRIBOSE DEGRADATION for O=C(O)Cc1c[nH]cn1 [Imidazole-4acetic acid, imidazole-4-acetic acid] ?
Result :: 30%

Query :: Using the record for N[C@@H](Cc1c[nH]cn1)C(=O)O [L-Histidine, L-histidine] , report its INHIBITION of DEOXYRIBOSE DEGRADATION.
Result :: 34%
